System: Plasmodium berghei
Assay: Screen against P. berghei liver stage (PbLuc), transformed with Luciferase, at 2uM
Assay type: functional, HepG2
Details: tested at 2 uM
In all, about 68,000 compounds went through this assay and about 2,700 (4%) showed an effect of 50% or more. What follows is part of a selection rich in strong results, with near analogues and random picks from the rest.
measured.metric: INHIBITION (%)
Provide only the numeric value, understood in %.

The examples below pair each entry with its known result.
>  <molecule>
CC(C)OCCN1CCc2cncnc2C1

>  <target.of.assay>
Plasmodium berghei

>  <unit.symbol>
%

>  <INHIBITION>
62.51

$$$$
>  <molecule>
CN(C)c1nc(N)nc(CN2CCCC2c2cccs2)n1 (centres undefined)

>  <target.of.assay>
Plasmodium berghei

>  <unit.symbol>
%

>  <INHIBITION>
-43.18

$$$$
>  <molecule>
CC(CO)NC(=O)Nc1ccc(CC#N)cc1 (centres undefined)

>  <target.of.assay>
Plasmodium berghei

>  <unit.symbol>
%

>  <INHIBITION>
20.32

$$$$
>  <molecule>
CCc1nc(CN2CCCN(C(=O)C3CCC3)CC2)cs1

>  <target.of.assay>
Plasmodium berghei

>  <unit.symbol>
%

>  <INHIBITION>
23.86

$$$$
>  <molecule>
O=C(c1ccc(=O)[nH]n1)N1CCCC(O)(CN2CCC(F)(F)CC2)CC1 (centres undefined)

>  <target.of.assay>
Plasmodium berghei

>  <unit.symbol>
%

>  <INHIBITION>
23.7

$$$$
>  <molecule>
Fc1cccc(CN2CCC(c3cc4ncccc4cn3)CC2)c1F

>  <target.of.assay>
Plasmodium berghei

>  <unit.symbol>
%

>  <INHIBITION>
-27.12

$$$$
>  <molecule>
Cc1nc(CN2CCN(C(=O)CCc3ccco3)CC2)cs1

>  <target.of.assay>
Plasmodium berghei

>  <unit.symbol>
%

>  <INHIBITION>
60.09

$$$$
>  <molecule>
Cc1c(C(=O)N2CCN(C)[C@@H]3CS(=O)(=O)C[C@@H]32)[nH]c2ccc(F)cc12

>  <target.of.assay>
Plasmodium berghei

>  <unit.symbol>
%

>  <INHIBITION>
28.95

$$$$
>  <molecule>
Cn1cc(CN2CCc3ncnc(N4CCOCC4)c3CC2)cn1

>  <target.of.assay>
Plasmodium berghei

>  <unit.symbol>
%

>  <INHIBITION>
-15.83

$$$$
>  <molecule>
CCn1c(CN2CCC(O)(C(=O)OC)CC2)nc2c(F)cccc21

>  <target.of.assay>
Plasmodium berghei

>  <unit.symbol>
%

>  <INHIBITION>
54.32

$$$$

Simply: O=C(CCc1nc(Cl)n[nH]1)N1CCC2(CCCNC2=O)C1 (centres undefined) , Plasmodium berghei, INHIBITION = -35.22

Simply: COC(=O)CCn1ccc(=O)c2cc(F)ccc21 , Plasmodium berghei, INHIBITION = -17.26

Simply: COc1cccc(CNC(=O)CN2CCCC(Cn3cncn3)C2)c1 (centres undefined) , Plasmodium berghei, INHIBITION = -0.76

Simply: O=C(O)Cn1ccc(=O)c2cc(F)ccc21 , Plasmodium berghei, INHIBITION = 3.88

Simply: CN(C)S(=O)(=O)N1CCCC(c2ccncn2)C1 (centres undefined) , Plasmodium berghei, INHIBITION = 31.98
